system_name: Acetyl-CoA carboxylase (Homo sapiens, UniProt Q13085+O00763)
test_protocol: Inhibition of human ACC1/2-mediated malonyl-CoA synthesis
Type: protein assay
value_kind: IC50 (nM)
Give your result in nM as a bare value.

Here's what some known entries look like.
CC(=O)N1CCC(C(=O)N2CCC(N3CCN(C(=O)c4cc(-c5cccc(C(F)(F)F)c5)nc(-c5ccc6[nH]ccc6c5)c4)CC3)CC2)CC1: 100
COc1cccc(-c2cc(C(=O)N3CCN(C4CCN(C(=O)C5CCN(C(C)=O)CC5)CC4)CC3)cc(-c3ccc4[nH]ccc4c3)n2)c1: 32
CC(=O)N1CCC(C(=O)N2CCC(N3CCN(C(=O)c4cc(-c5ccccc5)nc(-c5ccc(CC(=O)O)cc5)c4)CC3)CC2)CC1: 75
COc1ccc(-c2cc(C(=O)N3CCN(C4CCN(C(=O)C5CCN(C(C)=O)CC5)CC4)CC3)cc(-c3ccc4[nH]ccc4c3)n2)cc1OC: 30
CC(=O)N1CCC(C(=O)N2CCC(N3CCN(C(=O)c4cc(-c5ccccc5)nc(-c5ccc6c(c5)c(C)cn6C)c4)CC3)CC2)CC1: 127
CC(=O)N1CCC(C(=O)N2CCC(N3CCN(C(=O)c4cc(-c5ccccc5)nc(-c5ccc6[nH]c(CN(C)C)c(C)c6c5)c4)CC3)CC2)CC1: 8.4

Fill in the recorded IC50 for this compound, with Acetyl-CoA carboxylase (Homo sapiens, UniProt Q13085+O00763) as test system: `CC(=O)N1CCC(C(=O)N2CCC(N3CCN(C(=O)c4cc(-c5ccccc5)nc(-c5ccc(O)cc5)c4)CC3)CC2)CC1`
47

Fill in the recorded IC50 for this compound, with Acetyl-CoA carboxylase (Homo sapiens, UniProt Q13085+O00763) as test system: `CC(=O)N1CCC(C(=O)N2CCC(N3CCN(C(=O)c4cc(-c5ccc(C(F)(F)F)cc5)nc(-c5ccc6[nH]ccc6c5)c4)CC3)CC2)CC1`
72

----------
Reported IC50 is given for each of the following compounds.
system_name: Acetyl-CoA carboxylase (Homo sapiens, UniProt Q13085+O00763)
test_protocol: Inhibition of human ACC1/2-mediated malonyl-CoA synthesis
Type: protein assay
Give your result in nM as a bare value.

CC(=O)N1CCC(C(=O)N2CCC(N3CCN(C(=O)c4cc(-c5ccccc5)nc(-c5ccc6[nH]c(C)c(C)c6c5)c4)CC3)CC2)CC1: 33
CC(=O)N1CCC(C(=O)N2CCC(N3CCN(C(=O)c4cc(-c5cccc(F)c5)nc(-c5ccc6[nH]ccc6c5)c4)CC3)CC2)CC1: 33
CC(=O)N1CCC(C(=O)N2CCC(N3CCN(C(=O)c4cc(-c5ccc(F)cc5)nc(-c5ccc6[nH]ccc6c5)c4)CC3)CC2)CC1: 48
CC(=O)N1CCC(C(=O)N2CCC(N3CCN(C(=O)c4cc(-c5ccc(C)cc5)nc(-c5ccc6[nH]ccc6c5)c4)CC3)CC2)CC1: 30
CC(=O)N1CCC(C(=O)N2CCC(N3CCN(C(=O)c4cc(-c5ccc(C)c(F)c5)nc(-c5ccc6[nH]ccc6c5)c4)CC3)CC2)CC1: 49
CC(=O)N1CCC(C(=O)N2CCC(N3CCN(C(=O)c4cc(-c5ccccc5)nc(-c5ccc(C(N)=O)cc5)c4)CC3)CC2)CC1: 80

Give its IC50 value. Item: `CC(=O)N1CCC(C(=O)N2CCC(N3CCN(C(=O)c4cc(-c5ccccc5)nc(-c5ccc6[nH]cc(C)c6c5)c4)CC3)CC2)CC1`
36

Give its IC50 value. Item: `CC(=O)N1CCC(C(=O)N2CCC(N3CCN(C(=O)c4cc(-c5ccccc5)nc(-c5ccc6c(c5)c(C)c(C)n6C)c4)CC3)CC2)CC1`
105

Give its IC50 value. Item: `CC(=O)N1CCC(C(=O)N2CCC(N3CCN(C(=O)c4cc(-c5cccc(C)c5)nc(-c5ccc6[nH]ccc6c5)c4)CC3)CC2)CC1`
37

Give its IC50 value. Item: `CC(=O)N1CCC(C(=O)N2CCC(N3CCN(C(=O)c4cc(-c5ccccc5)nc(-c5ccc6cc[nH]c6c5)c4)CC3)CC2)CC1`
47

Give its IC50 value. Item: `CC(=O)N1CCC(C(=O)N2CCC(N3CCN(C(=O)c4cc(-c5ccccc5)nc(-c5ccc6[nH]ncc6c5)c4)CC3)CC2)CC1`
42

Give its IC50 value. Item: `CC(=O)N1CCC(C(=O)N2CCC(N3CCN(C(=O)c4cc(-c5ccccc5)nc(-c5ccc6c(c5)cc(C)n6C)c4)CC3)CC2)CC1`
117

Give its IC50 value. Item: `CC(=O)N1CCC(C(=O)N2CCC(N3CCN(C(=O)c4cc(-c5ccccc5)nc(-c5ccc6[nH]c(C)cc6c5)c4)CC3)CC2)CC1`
59
